test system: TRPC4 beta (transient receptor potential cation channel C4), mouse; assay: activators of mouse TRPC4 channel, confirmation, cell-based, Fluo4 calcium, HEK293 TRPC4beta/mu-opioid, duplicates, 10 µM (AID 2426); conditions: Fluo4 calcium fluorescence, at 10 µM
The source made the active and inactive calls.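 Rule for the calls: active = fluorescence ratio normalized to control raised more than 50% in primary screen plus both repeat runs; inactive = the rest.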
Can you answer with just one of these options? active, inactive

Returns: the outcome recorded for "CN(C)CCCN(C(=O)c1ccc(S(=O)(=O)N2CCOCC2)cc1)c1nc2ccc(F)cc2s1" in this assay.
active

Short answer needed: outcome of this test for Cc1ccc(C2(O)CN(c3ccccc3)C3=[N+]2CCS3)cc1 (stereo unspecified) ?
inactive

Call for entry "O=C(CNS(=O)(=O)c1ccc2ccccc2c1)NCCc1ccccn1" :
active

# lookup: test call for COc1ccc(C2Nc3ccccc3C(=O)N2Cc2ccco2)cc1COc1ccc(NC(C)=O)cc1 (stereo unspecified)
inactive

What call does the record list for O=C(C1CCCN(Cc2ccccc2F)C1)N1CCc2ccccc2C1 (stereo unspecified) ?
active

For this compound, state the assay outcome: "Fc1ccc(-c2nnc(CN3CCN(c4ncc(C(F)(F)F)cc4Cl)CC3)o2)cc1"
active

Returns: the outcome recorded for CN(C)C(CNC(=S)Nc1ccccc1)c1cccnc1 (stereo unspecified) in this assay.
active

Test call for this compound, please: "CN(C)CCCN(C(=O)c1ccc(S(=O)(=O)N(C)C)cc1)c1nc2ccc(F)cc2s1"
active

Please indicate how the test categorized O=C(c1sc2ccccc2c1Cl)N(Cc1cccs1)C1CCS(=O)(=O)C1 (stereo unspecified) .
active

Which result was noted for this compound in the test: CN(C)C(CNC(=O)/C=C/c1cccc(Cl)c1)c1ccccc1 (stereo unspecified)
active

Per the assay record, what outcome was assigned to "Cc1ccc(Sc2cc(C(=O)NCCN(C)C)c3ccccc3n2)cc1" ?
active

Record lookup: outcome of this test for Cc1cccc(NC(=S)NCC(c2cccnc2)N(C)C)c1 (stereo unspecified) ?
active

Could you check what this test reported for Cc1ccc(Cl)cc1NC(=O)CNCC(c1ccccc1)N(C)C (stereo unspecified) ?
inactive

Tell me the recorded outcome of this test for "CC[C@@H](C(=O)[C@@H](C)[C@@H](O)[C@H](C)CCc1ccc(C)c(O)c1C(=O)O)[C@H]1O[C@](CC)([C@H]2CC[C@](O)(CC)[C@H](C)O2)C[C@@H]1C" .
active

For "COc1ccc(C(=O)NC(=S)NNC(=O)CCc2ccccc2)cc1" , which call appears in the assay record?
active

Given "CN(CCc1nc2ccc(Cl)cc2[nH]1)Cc1nc(CC2CC2)no1" , state the outcome it received in this test.
active

What is the recorded call for this compound in the test? CCn1c(SCC(=O)c2cc(C)n(CC3CCCO3)c2C)nc2ccccc21 (stereo unspecified)
inactive

Hello, I am checking results. What call was entered for "CC(C)(C)C(=O)NC(=S)NNC(=O)c1ccc(-c2ccccc2)cc1" ?
active

Can you look up the reported call for "CN1CCC(CNC(=O)Nc2ccccc2)(c2ccccc2)CC1" for me?
active

Which outcome was assigned to COc1ccc(/C=C/C(=O)Nc2ccccc2C(=O)NCC(c2ccc(OC)cc2)N(C)C)cc1 (stereo unspecified) in this test?
inactive

Tell me the assay call for "Cc1nc(/N=C(\N)NC(=O)NC2CCCCC2)nc2ccccc12" please.
active

---

assay: thallium flux activation in parental CHO cells, counter-screen for KCNQ1 potentiator project (AID 493006); settings: parental CHO-K1 cells, FluxOR thallium flux, at 10 µM;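 for activation: fluorescence ratio of max minus min over baseline after K+ and Tl+ depolarization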
The source made the active and inactive calls.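 Rule for the calls: active = duplicate-averaged activation above buffer control mean plus 5 SD of those controls; inactive = the rest.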
Select the matching outcome among active, inactive

Any idea what this test logged for "CCOC(=O)CSc1nc2ccccc2n2c(C)nnc12" ?
inactive

How was "COc1ccc(CC(=O)c2ccccc2C(=O)O)cc1" classified in this test?
inactive

Please indicate how the test categorized "O=C(CN1CCOCC1)N1CCN(c2nnc(-c3ccccc3)c3ccccc23)CC1" .
inactive

Assay result, entry "O=C(N/N=C/c1ccccn1)c1cc(Br)ccc1O" — outcome?
active

Fill in: this test's call for "Clc1ccc(C2=Nn3c(nnc3-c3n[nH]c4c3CCC4)SC2)cc1Cl" is ___
inactive

Outcome? "Cc1cccc(C(=O)Oc2csc(=S)n2C(=O)c2cccc(C)c2)c1"
active

Per the records of this test, what outcome belongs to "O=C(Nc1cccc(S(=O)(=O)NC2=NCCC2)c1)c1c(F)cccc1Cl" ?
inactive

What call does the record list for C=CCNC(=S)Nc1sc2c(c1C(=O)OCC)CC(C)(CC)OC2 (stereo unspecified) ?
active

Per the records of this test, what outcome belongs to "CCCOc1ccc(C(=O)NNC(=S)NC(=O)c2cc(-c3ccccc3)nc3ccccc23)cc1" ?
inactive

So what was the verdict on "CCOC(=O)c1sc2ncnc(NCc3ccco3)c2c1C" in this test?
active

What was the test verdict on "Fc1ccc(/C=N/n2c(-c3cccs3)n[nH]c2=S)cc1" ?
inactive

---

test: thallium flux activation in parental CHO cells, counter-screen for KCNQ1 potentiator project (AID 493006); settings: parental CHO-K1 cells, FluxOR thallium flux, at 10 µM; hits give high values;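 for activation: fluorescence ratio of max minus min over baseline after K+ and Tl+ depolarization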
Calls of active or inactive are those of the source.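 The calls were made as follows: active = duplicate-averaged activation above buffer control mean plus 5 SD of those controls; inactive = the rest.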
ENDPOINT: activation

Below, each entry is followed by its recorded activation result.
CCOc1ccc(N2CC(C(=O)Nc3cc(Cl)ccc3-n3cncn3)CC2=O)cc1 (stereo not drawn) : inactive
COc1ccc2nc(N3C(=O)/C(=C/c4ccccc4)NC3=S)sc2c1 : 380% (active)
Cn1nnnc1SCC(=O)NCc1ccc2c(c1)OCO2 : inactive
Cc1cc(C)c2ccc(C)[n+]([O-])c2c1O : inactive
O=C(Nc1nc2c(F)cc(F)cc2s1)C1COc2ccccc2O1 (stereo not drawn) : 142% (active)

Note activation for the compound shown: COc1ccc(C2c3ccc4ccccc4c3Oc3ncn(CCN4CCOCC4)c(=N)c32)cc1OC (stereo not drawn)
inactive

State its activation: "Cc1cccc(C(=O)NC(=S)N(C)C2CCCCC2)c1"
268% (active)

Annotate the compound "O=c1ccc(N=Nc2ccccc2)ccc1O" with its measured activation.
322% (active)

Fill in activation for record "CCCS(=O)(=O)c1c(S(=O)(=O)CCC)c2c(C(N)=O)cccn2c1C(=O)c1ccc(F)cc1"
inactive

Identify measured activation associated with "CCCC(=O)n1nc(-c2ccc(C)cc2)nc1NCc1ccco1"
inactive

Respond only with activation recorded for "COCCn1cnc2c1c(=O)n(CC#N)c(=O)n2Cc1ccccc1"
inactive

Return value of activation for input "CC(/C=C1\SC(=S)N(c2ccc(C(=O)O)cc2)C1=O)=C\c1ccccc1" , no commentary.
inactive

---

target: Potassium voltage-gated channel subfamily KQT member 1 (Homo sapiens); assay: KCNQ1 potassium channel potentiators, confirmation, FluxOR thallium flux, CHO cells, duplicates (AID 493007); conditions: KCNQ1 cell line, FluxOR thallium flux fluorescence, at 10 µM; hits give high values, % of reference activator effect, buffer zero;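 for potentiation: 0% = buffer-only wells and 100% = R-L3 activator control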
Calls of active or inactive are those of the source.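 The calls were made as follows: active = potentiation averaged over duplicate wells exceeding buffer-only control mean by more than 3 SD; inactive = the rest.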
ENDPOINT: potentiation

CC(C)(C)c1ccc(C(=O)NC(=S)NNC(=O)c2cccs2)cc1 : 97% (active)
CCCCC(=O)N(c1ccc(OCC)cc1)C1C=CS(=O)(=O)C1 (stereo unspecified) : inactive
Cc1ccc(OCCN2C(=O)c3ccccc3C2=O)c([N+](=O)[O-])c1 : inactive
CCN(CC)CCn1c(=S)[nH]c2cc(C(=O)NCc3ccc(C)cc3)ccc2c1=O : inactive
CCc1ccc(/C=C/C(=O)c2cc(Br)ccc(=O)c2O)cc1 : 140% (active)
CCCCCCCN1N=C(C)C(C(=O)c2ccccc2)C1=O (stereo unspecified) : inactive
O=C(Nc1cc(=O)[nH]c(=O)[nH]1)c1cccc(Br)c1 : inactive
COc1ccc(-c2csc(N(CCCN(C)C)C(=O)c3ccccc3Cl)n2)cc1 : inactive
COCCCn1c(=S)[nH]c2c(sc3ccccc32)c1=O : 69.5% (active)
Cc1ccc(CN2C(=O)CC(Nc3ccc(N4CCOCC4)cc3)C2=O)cc1 (stereo unspecified) : inactive

Consider the record given below.
State, in one line, measured potentiation of "CCOC(=O)SC1=N/C(=C\c2ccc(N(C)C)cc2)C(=O)S1"
inactive

---

molecular target: Potassium voltage-gated channel subfamily KQT member 1 (Homo sapiens) (UniProt P51787); experiment: KCNQ1 channel current potentiators, confirmation, orthogonal assay for KCNQ1 potentiator project, IonWorks patch clamp, KCNQ1-CHO cells (AID 493184); conditions: automated patch clamp current, at 10 µM
Sequence (P51787 whole entry, looked up): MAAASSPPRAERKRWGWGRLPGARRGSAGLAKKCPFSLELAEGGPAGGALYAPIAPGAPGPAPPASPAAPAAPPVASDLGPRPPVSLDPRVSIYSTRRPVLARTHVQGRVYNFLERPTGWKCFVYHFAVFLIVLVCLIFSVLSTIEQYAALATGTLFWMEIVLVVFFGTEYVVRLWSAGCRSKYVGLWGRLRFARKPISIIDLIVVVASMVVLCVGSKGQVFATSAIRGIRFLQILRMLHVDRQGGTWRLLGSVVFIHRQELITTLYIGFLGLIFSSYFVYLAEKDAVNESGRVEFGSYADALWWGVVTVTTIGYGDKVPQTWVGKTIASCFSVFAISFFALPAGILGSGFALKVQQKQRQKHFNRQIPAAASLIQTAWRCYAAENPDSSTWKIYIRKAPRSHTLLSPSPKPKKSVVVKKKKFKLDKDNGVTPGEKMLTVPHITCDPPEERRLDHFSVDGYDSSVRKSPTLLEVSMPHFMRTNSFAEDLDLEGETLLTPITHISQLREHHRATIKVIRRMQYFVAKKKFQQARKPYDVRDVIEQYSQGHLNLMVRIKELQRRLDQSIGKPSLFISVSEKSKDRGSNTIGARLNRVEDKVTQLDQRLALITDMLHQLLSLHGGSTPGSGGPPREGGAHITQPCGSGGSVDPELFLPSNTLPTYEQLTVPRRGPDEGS
The source made the active and inactive calls.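 How the source made its calls: active means current rise at least 3 SD above the untreated control mean in each of two repeat wells; inactive means the rest.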
Form entry, call: pick from 1 = active, 0 = inactive

Per the assay record, what outcome was assigned to CC(C(=O)O)n1c2ccccc2c2cn[nH]c(=O)c21 (stereo not drawn) ?
0

So what was the verdict on "Oc1c(/C=N/c2ccccn2)sc2ccccc12" in this test?
0

How was "COCCCn1c(=S)[nH]c2sc3c(c2c1=O)CCCS3" classified in this test?
0

Assay outcome for "Cc1cc(C)c2c(=O)n(CC(=O)Nc3ccc(Cl)cc3)sc2n1" : what was it?
0

Name the outcome recorded for Cc1cc([N+](=O)[O-])ccc1-c1ccc(C2Nc3ccccc3C(=O)N2O)o1 (stereo not drawn) in the assay.
0

GET /call?item= "Cc1c(N2C(=O)/C(=C\c3ccccc3O)SC2=S)c(=O)n(-c2ccccc2)n1C" returns the recorded outcome of this test.
0

So what was the verdict on "C/C(=N\Nc1cccc2cccnc12)c1ccc[nH]1" in this test?
0

Record lookup: outcome of this test for "Oc1oc(-c2cccc3ccccc23)nc1/C=N/c1nccs1" ?
0

Check the results log: what was the call for O=C(O)C1C2CCC(O2)C1C(=O)NCCC1=CCCCC1 (stereo not drawn) ?
0

Give the logged outcome of this assay for the following molecule: Cc1ccccc1C(OCCN(C)C)C1CCCCC1 (stereo not drawn)
0

Which result was noted for this molecule in the test: CCn1c(SC(C)C(=O)O)nc2sc3c(c2c1=O)CCC3 (stereo not drawn)
0

What was the test verdict on "O=C(Nc1nnc(-c2ccc3c(c2)CCCC3)o1)c1c(F)cccc1F" ?
1

Could you kindly confirm the outcome this assay logged for "C=CCN(c1ccccc1)S(=O)(=O)c1cccc(C(=O)Nc2cccc(C)n2)c1" ?
0

Give the logged outcome of this assay for the following molecule: "CCOC(=O)c1c(-c2ccccc2)csc1NC(=S)NC"
0

Given "Cc1cc(/C=N/NC(=O)C(O)(c2ccccc2)c2ccccc2)c(C)n1-c1ccccc1" , state the outcome it received in this test.
0

Please indicate how the test categorized "CCN(c1ccccc1)S(=O)(=O)c1ccc(OC)c(NC(=O)COc2ccc(C(C)=O)cc2)c1" .
0

Dear colleague, could you share the recorded outcome for "Cc1cccc(NC(=O)c2cccc(NC(=O)Cc3cccs3)c2)c1" when you have a moment?
0

What classification did "COc1ccccc1C(=O)NNC(=O)C(=O)NC(C)(C)C" end up with in this test?
0

Test call for this molecule, please: "C=CCn1c(=S)[nH]c2sc3c(c2c1=O)CCC3"
0

Can you look up the reported call for "Cc1onc(-c2ccccc2)c1C(=O)NC(=S)NNC(=O)c1ccccc1O" for me?
0

Can you look up the reported call for CCC(/C=N/NC(=O)C1COc2ccccc2O1)CC (stereo not drawn) for me?
0

Recorded call for "Cc1ccc(Cl)cc1N1CCN(C(=O)c2ccc(CN3CCOCC3)cc2)CC1" ?
0

Dear all, I need the recorded test outcome for "COc1cc(CNCc2ccccn2)ccc1OCc1c(Cl)cccc1Cl" , thank you.
0
